target: IKZF1 (Homo sapiens (Human), UniProt Q13422+Q96SW2); assay: In vitro IKZF1 HiBit Assay (HEK293T Flp-in-HiBiT-IKZF1 stable cell line); type: cell-based; conditions: HEK-293T; HEK293T Flp-in-HiBiT-IKZF1 stable cell line, 6 hrs incubation; read-out: IKZF1 HiBit Dmax (%)
Sequence (Q13422 whole entry): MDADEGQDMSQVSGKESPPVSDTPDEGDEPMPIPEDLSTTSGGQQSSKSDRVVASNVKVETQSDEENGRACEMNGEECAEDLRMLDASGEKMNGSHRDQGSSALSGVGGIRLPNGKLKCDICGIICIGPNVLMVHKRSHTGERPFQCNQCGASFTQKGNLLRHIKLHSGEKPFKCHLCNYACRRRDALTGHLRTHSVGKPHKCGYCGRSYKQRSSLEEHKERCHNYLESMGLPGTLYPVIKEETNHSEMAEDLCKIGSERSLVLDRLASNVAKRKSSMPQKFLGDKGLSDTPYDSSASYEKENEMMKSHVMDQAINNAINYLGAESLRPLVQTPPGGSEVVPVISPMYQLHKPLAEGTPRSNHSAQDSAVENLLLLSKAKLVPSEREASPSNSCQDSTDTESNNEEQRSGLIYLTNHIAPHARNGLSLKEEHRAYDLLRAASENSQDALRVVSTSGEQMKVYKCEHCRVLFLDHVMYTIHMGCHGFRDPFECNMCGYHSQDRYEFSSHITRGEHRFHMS
Sequence (Q96SW2 whole entry): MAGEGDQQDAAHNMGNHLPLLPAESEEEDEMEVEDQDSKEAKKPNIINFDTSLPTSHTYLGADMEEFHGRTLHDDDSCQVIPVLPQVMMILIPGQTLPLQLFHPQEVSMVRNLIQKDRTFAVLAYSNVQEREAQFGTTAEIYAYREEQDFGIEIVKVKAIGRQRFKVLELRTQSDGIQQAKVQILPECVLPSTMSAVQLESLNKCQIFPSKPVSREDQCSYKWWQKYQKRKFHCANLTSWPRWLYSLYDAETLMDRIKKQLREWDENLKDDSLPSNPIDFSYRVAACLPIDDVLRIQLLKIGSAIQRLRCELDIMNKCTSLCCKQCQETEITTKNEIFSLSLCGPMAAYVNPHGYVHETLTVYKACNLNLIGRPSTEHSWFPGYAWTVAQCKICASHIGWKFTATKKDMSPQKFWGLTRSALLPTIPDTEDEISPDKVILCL
Sequence (Q16531 2-1140 partner): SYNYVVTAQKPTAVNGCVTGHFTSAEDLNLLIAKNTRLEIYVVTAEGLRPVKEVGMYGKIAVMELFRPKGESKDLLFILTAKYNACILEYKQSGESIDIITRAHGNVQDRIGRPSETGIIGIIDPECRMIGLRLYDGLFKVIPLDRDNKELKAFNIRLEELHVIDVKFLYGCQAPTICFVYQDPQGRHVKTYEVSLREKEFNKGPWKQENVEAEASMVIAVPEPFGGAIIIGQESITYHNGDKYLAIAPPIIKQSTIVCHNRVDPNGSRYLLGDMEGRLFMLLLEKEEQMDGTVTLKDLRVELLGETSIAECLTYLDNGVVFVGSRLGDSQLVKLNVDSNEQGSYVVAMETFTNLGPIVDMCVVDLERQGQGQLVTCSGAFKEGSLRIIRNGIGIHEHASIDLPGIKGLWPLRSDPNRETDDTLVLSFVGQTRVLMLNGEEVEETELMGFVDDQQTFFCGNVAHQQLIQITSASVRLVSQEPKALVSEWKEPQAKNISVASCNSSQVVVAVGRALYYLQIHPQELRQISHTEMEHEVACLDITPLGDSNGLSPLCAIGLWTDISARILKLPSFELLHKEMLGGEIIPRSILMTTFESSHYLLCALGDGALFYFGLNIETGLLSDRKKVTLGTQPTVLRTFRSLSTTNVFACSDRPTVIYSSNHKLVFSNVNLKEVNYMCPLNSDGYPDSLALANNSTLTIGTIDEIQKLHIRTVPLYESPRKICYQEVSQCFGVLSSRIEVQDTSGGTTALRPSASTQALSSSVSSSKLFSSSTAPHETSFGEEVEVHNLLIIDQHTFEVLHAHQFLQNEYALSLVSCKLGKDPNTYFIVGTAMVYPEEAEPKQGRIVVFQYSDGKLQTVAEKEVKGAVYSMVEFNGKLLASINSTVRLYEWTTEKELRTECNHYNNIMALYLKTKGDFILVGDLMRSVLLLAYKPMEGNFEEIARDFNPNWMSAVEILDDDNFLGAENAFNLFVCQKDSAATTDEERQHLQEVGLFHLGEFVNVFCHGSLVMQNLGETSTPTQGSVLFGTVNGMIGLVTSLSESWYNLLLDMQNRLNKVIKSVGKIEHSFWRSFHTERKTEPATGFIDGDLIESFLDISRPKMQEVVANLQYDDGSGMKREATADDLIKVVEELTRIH
Recorded Dmax, one value per entry.
readout-label: Dmax

> print(dat)
                                   molecule  endpoint.result
1  O=C1CCC(N2Cc3cc(-c4cc(CN5CCC(F)C5)c5ccn(C6COC6)c5n4)ccc3C2=O)C(=O)N1 (stereo not shown)            < 20%
2  CC(C)Nc1n[nH]c2c(CN3CCC4(CC3)COC4)cc(-c3ccc4c(c3F)CN(C3CCC(=O)NC3=O)C4=O)nc12 (stereo not shown)        20 to 40%
3  O=C1CCC(N2Cc3cc(-c4cc(CN5CC(F)C5)c5ccn(C6CC6)c5n4)ccc3C2=O)C(=O)N1 (stereo not shown)            < 20%
4  COCC1CCN(Cc2cc(-c3ccc4c(c3)CN(C3CCC(=O)NC3=O)C4=O)nc3c2ccn3C)C1 (stereo not shown)        20 to 40%

###

molecular target: IKZF2 (Homo sapiens (Human), UniProt Q96SW2+Q9UKS7); assay: In vitro IKZF2 HiBit Assay (HEK293T Flp-in-HiBiT cells); format: cell-based; details: HEK-293T; HEK293T Flp-in-HiBiT cells, 6 hrs incubation; read-out: IKZF2 HiBit Dmax (%)
Sequence (Q9UKS7 whole entry): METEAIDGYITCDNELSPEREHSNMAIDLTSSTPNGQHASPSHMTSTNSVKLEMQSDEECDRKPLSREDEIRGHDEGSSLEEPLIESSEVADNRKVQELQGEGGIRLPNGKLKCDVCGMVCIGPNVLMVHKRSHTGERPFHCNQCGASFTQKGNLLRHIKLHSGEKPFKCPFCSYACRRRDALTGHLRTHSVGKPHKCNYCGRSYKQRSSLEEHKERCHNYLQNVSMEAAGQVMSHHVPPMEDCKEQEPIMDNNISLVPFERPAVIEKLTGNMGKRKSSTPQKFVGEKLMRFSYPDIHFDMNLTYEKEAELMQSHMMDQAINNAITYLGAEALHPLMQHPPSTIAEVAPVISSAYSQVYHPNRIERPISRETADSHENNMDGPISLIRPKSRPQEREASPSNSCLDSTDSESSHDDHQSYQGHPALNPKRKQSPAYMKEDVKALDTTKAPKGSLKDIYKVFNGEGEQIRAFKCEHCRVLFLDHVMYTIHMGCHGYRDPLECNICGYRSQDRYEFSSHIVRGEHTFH
Sequence (Q96SW2 whole entry): as the sequence (Q96SW2 whole entry) above
Sequence (Q16531 2-1140 partner): as the sequence (Q16531 2-1140 partner) above
readout-label: Dmax

> print(dat)
                                   compound  endpoint.result
1  O=C1CCC(N2Cc3c(ccc(-c4cc(CN5CCC6(CC5)COC6)c5ccn(C6CS(=O)(=O)C6)c5n4)c3F)C2=O)C(=O)N1 (stereo not shown)            > 80%
2  CN1CC(n2ccc3c(CN4CCCC4)cc(-c4ccc5c(c4F)CN(C4CCC(=O)NC4=O)C5=O)nc32)C1 (stereo not shown)            > 80%
3  O=C1CCC(N2Cc3cc(-c4cc(CN5CCCC5)c5ccn(C6CCOCC6)c5n4)ccc3C2=O)C(=O)N1 (stereo not shown)        60 to 80%
4  O=C1CCC(N2Cc3cc(-c4cc(CN5CCCC5)c5ncn(C6CCC6)c5n4)ccc3C2=O)C(=O)N1 (stereo not shown)            > 80%

###

molecular target: IKZF2 (Homo sapiens (Human), UniProt Q96SW2+Q9UKS7); test: In vitro IKZF2 HiBit Assay (HEK293T Flp-in-HiBiT cells); type: cell-based; settings: HEK-293T; HEK293T Flp-in-HiBiT cells, 6 hrs incubation; read-out: IKZF2 HiBit Dmax (%)
# reported Dmax; entries follow
readout-label: Dmax

> print(dat)
                                    compound  endpoint.result
 1  O=C1CCC(N2Cc3cc(-c4ccc(CN5CCCC5)c5cncn45)ccc3C2=O)C(=O)N1 (stereo not drawn)            < 20%
 2  O=C1CCC(N2Cc3cc(-c4cc(CN5CCC(F)C5)c5cc[nH]c5n4)ccc3C2=O)C(=O)N1 (stereo not drawn)            > 80%
 3  O=C1CCC(N2Cc3cc(-c4cc(CN5CCCC5)c5nccc(OC(F)F)c5n4)ccc3C2=O)C(=O)N1 (stereo not drawn)            > 80%
 4  CN(C)C1CCN(Cc2cc(-c3ccc4c(c3)CN(C3CCC(=O)NC3=O)C4=O)nc3c2ccn3C2COC2)CC1 (stereo not drawn)        40 to 60%
 5  Cn1ccc2c(C(=O)N3CCCC3)cc(-c3ccc4c(c3)CN(C3CCC(=O)NC3=O)C4=O)nc21 (stereo not drawn)        20 to 40%
 6  Cn1ccc2c(CN3CCC(O)CC3)cc(-c3ccc4c(c3)CN(C3CCC(=O)NC3=O)C4=O)nc21 (stereo not drawn)            > 80%
 7  CC(C)Nc1n[nH]c2c(CN3CC4(CCOCC4)C3)cc(-c3ccc4c(c3F)CN(C3CCC(=O)NC3=O)C4=O)nc12 (stereo not drawn)            > 80%
 8  Cc1cc2c(CN3CCCC3)cc(-c3ccc4c(c3)CN(C3CCC(=O)NC3=O)C4=O)nc2n1C1COC1 (stereo not drawn)        60 to 80%
 9  Cn1ccc2c(CN3CC4COCC4C3)cc(-c3ccc4c(c3)CN(C3CCC(=O)NC3=O)C4=O)nc21 (stereo not drawn)            > 80%
10  Nc1n[nH]c2c(CN3CCC3)cc(-c3ccc4c(c3)CN(C3CCC(=O)NC3=O)C4=O)nc12 (stereo not drawn)        60 to 80%
11  O=C1CCC(N2Cc3cc(-c4cc(CN5CCC(CO)C5)c5ccn(C6COC6)c5n4)ccc3C2=O)C(=O)N1 (stereo not drawn)        60 to 80%
12  COCC1CCCN1Cc1cc(-c2ccc3c(c2)CN(C2CCC(=O)NC2=O)C3=O)nc2c1ccn2C (stereo not drawn)            > 80%
13  O=C1CC[C@H](N2Cc3cc(-c4cc(CN5CCCC5)c5ccn(-c6cn[nH]c6)c5n4)ccc3C2=O)C(=O)N1            > 80%
14  COCCn1ccc2c(CN3CCCC3)cc(-c3ccc4c(c3)CN(C3CCC(=O)NC3=O)C4=O)nc21 (stereo not drawn)        40 to 60%
15  Cc1cc(-c2ccc3c(c2)CN(C2CCC(=O)NC2=O)C3=O)nc2oc(CN3CCCC3)nc12 (stereo not drawn)        40 to 60%

###

# DC50 values compiled below
biological target: IKZF1 (Homo sapiens (Human), UniProt Q13422+Q96SW2); assay: In vitro IKZF1 HiBit Assay (HEK293T Flp-in-HiBiT-IKZF1 stable cell line); type: cell-based; details: HEK293T Flp-in-HiBiT-IKZF1 stable cell line, 6 hrs incubation; read-out: IKZF1 HiBit DC50
readout-label: DC50

> print(dat)
                                    molecule  endpoint.result
 1  O=C1CCC(N2Cc3cc(-c4cc(CN5CCCC5)c5cn(C6CCC6)nc5n4)ccc3C2=O)C(=O)N1 (stereo not drawn)   0.01 to 0.1 µM
 2  O=C1CCC(N2Cc3cc(-c4cc(CN5CCC(CO)CC5)c5ccn(C6CC6)c5n4)ccc3C2=O)C(=O)N1 (stereo not drawn)   0.01 to 0.1 µM
 3  Cn1ccc2c(CN3CCN4CCCC4C3)cc(-c3ccc4c(c3)CN(C3CCC(=O)NC3=O)C4=O)nc21 (stereo not drawn)          > 10 µM
 4  O=C1CCC(N2Cc3cc(-c4cc(CN5CCCC5)c5ccn(C6CCCC6)c5n4)ccc3C2=O)C(=O)N1 (stereo not drawn)          > 10 µM
 5  CC(C)Nc1n[nH]c2c(CN3CCC(F)C3)cc(-c3ccc4c(c3F)CN(C3CCC(=O)NC3=O)C4=O)nc12 (stereo not drawn)          > 10 µM
 6  O=C1CCC(N2Cc3cc(-c4cc(CN5CCCC5)c5nccc(N6CCC6)c5n4)ccc3C2=O)C(=O)N1 (stereo not drawn)      0.1 to 1 µM
 7  O=C1CCC(N2Cc3cc(-c4cc(CN5CCC(O)C5)c5cc[nH]c5n4)ccc3C2=O)C(=O)N1 (stereo not drawn)      0.1 to 1 µM
 8  O=C1CCC(N2Cc3cc(-c4cc(CN5CCCC5)c5[nH]nc(C6CCC6)c5n4)ccc3C2=O)C(=O)N1 (stereo not drawn)   0.01 to 0.1 µM
 9  Cn1ccc2c(Cn3cnc4ccccc43)cc(-c3ccc4c(c3)CN(C3CCC(=O)NC3=O)C4=O)nc21 (stereo not drawn)          > 10 µM
10  CN1C2CCC1CN(Cc1cc(-c3ccc4c(c3)CN(C3CCC(=O)NC3=O)C4=O)nc3c1ccn3C)C2 (stereo not drawn)          > 10 µM
11  O=C1CCC(N2Cc3cc(-c4cc(CN5CC6COCC(C6)C5)c5cc[nH]c5n4)ccc3C2=O)C(=O)N1 (stereo not drawn)          > 10 µM
12  N#CC1CCN(Cc2cc(-c3ccc4c(c3)CN(C3CCC(=O)NC3=O)C4=O)nc3c2ccn3C2COC2)CC1 (stereo not drawn)          > 10 µM
13  Cn1ccc2c(CN3CCCC3CO)cc(-c3ccc4c(c3)CN(C3CCC(=O)NC3=O)C4=O)nc21 (stereo not drawn)          > 10 µM
14  O=C1CCC(N2Cc3cc(-c4cc(CN5CC(O)C5)c5ccn(C6COC6)c5n4)ccc3C2=O)C(=O)N1 (stereo not drawn)          > 10 µM
15  COc1cc2c(cc1-c1cc(CN3CCCC3)cc3cncn13)CN(C1CCC(=O)NC1=O)C2=O (stereo not drawn)          > 10 µM
